All figures here come from ChEMBL document CHEMBL4613220.

Experiment: Cytotoxicity against human WI38 cells assessed as growth inhibition after 4 days by cell-titer-Glo assay
Type: cell-based, WI-38
Conditions: WI-38 cells
Label Met when GI50 at 96 h is strictly below 10 µM; otherwise label Not met.

{"columns": ["Entry Smiles", "Category Label"],
 "data": [
  ["Clc1cc(-c2ccccc2)nn1-c1ccccn1", "Not met"],
  ["Oc1cc(C2CCCC2)nn1-c1ccccn1", "Not met"],
  ["CS(=O)(=O)c1ccc(-n2nc(-c3ccccc3)cc2O)nc1", "Not met"],
  ["Oc1cc(-c2ccccc2)nn1-c1ncccc1Cl", "Not met"],
  ["Oc1cc(-c2ccccc2)nn1-c1cccnc1", "Not met"]
]}

Consider the additional compound presented here.
GI50 at 96 h strictly < 10 µM for this compound? Oc1cc(C2CCC2)nn1-c1ccccn1
Not met
